Target: Ret V804M (Homo sapiens (Human), UniProt P07949, V804M)
Sequence (P07949 29-1114 V804M): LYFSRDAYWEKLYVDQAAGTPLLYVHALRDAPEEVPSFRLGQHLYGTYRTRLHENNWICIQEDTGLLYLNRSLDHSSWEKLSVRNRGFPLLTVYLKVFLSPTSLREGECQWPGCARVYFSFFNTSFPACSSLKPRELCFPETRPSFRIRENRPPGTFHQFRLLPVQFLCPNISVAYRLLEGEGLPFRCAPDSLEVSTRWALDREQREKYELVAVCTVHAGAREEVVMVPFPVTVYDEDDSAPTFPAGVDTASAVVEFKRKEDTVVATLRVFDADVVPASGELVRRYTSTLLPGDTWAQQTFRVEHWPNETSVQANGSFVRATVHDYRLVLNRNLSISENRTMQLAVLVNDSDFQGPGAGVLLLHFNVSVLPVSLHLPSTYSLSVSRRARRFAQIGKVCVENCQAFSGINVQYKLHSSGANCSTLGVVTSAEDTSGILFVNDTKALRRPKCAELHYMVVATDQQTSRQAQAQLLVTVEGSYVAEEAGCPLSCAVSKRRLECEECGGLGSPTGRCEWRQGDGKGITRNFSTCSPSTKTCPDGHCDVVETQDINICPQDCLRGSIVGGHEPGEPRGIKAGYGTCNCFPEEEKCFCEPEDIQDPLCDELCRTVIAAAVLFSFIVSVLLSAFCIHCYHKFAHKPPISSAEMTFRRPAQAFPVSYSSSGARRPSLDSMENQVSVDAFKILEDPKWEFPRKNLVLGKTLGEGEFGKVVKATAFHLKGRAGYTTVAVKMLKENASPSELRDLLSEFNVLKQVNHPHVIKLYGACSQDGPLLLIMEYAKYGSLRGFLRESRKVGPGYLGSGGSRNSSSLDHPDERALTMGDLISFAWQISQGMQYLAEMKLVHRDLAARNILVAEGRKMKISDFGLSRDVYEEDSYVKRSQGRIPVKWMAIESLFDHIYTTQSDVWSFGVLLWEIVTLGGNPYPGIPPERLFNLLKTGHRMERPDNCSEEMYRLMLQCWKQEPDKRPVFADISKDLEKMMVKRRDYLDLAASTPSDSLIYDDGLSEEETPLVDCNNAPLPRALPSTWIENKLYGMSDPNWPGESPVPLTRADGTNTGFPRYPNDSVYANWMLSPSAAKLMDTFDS
Assay: HTRF kinase inhibition assay, Ret V804M
Format: biochemical
Settings: HTRF method
IC50 values, listed per item
Unit nM implied. Number only.

- Cn1cc(-c2cc(-c3ccc(N4CC5CC(C4)N5CC#Cc4cccnc4F)nc3)c3c(C#N)cnn3c2)cn1 [Example 256]: 0.44
- C#Cc1cc(C(=O)N2C3CC2CN(c2ccc(-c4cc(-c5cnn(C)c5)cn5ncc(C#N)c45)cn2)C3)ccc1F [Example 233]: 8.92
- COc1ccc(C#CCN2C3CC2CN(c2ccc(-c4cc(-c5cnn(C)c5)cn5ncc(C#N)c45)cn2)C3)cn1 [Example 194]: 7.07
- C#Cc1ccc(C(=O)N2CCN(c3ccc(-c4cc(-c5cnn(C)c5)cn5ncc(C#N)c45)cn3)CC2)cc1F [Example 236]: 19.7
- C#Cc1cc(F)c(C(=O)N2CCN(c3ccc(-c4cc(-c5cnn(C)c5)cn5ncc(C#N)c45)cn3)CC2)c(F)c1 [Example 234]: 62.3
- Cn1cc(-c2cc(-c3ccc(N4CC5CC(C4)N5CC#Cc4ccncc4)nc3)c3c(C#N)cnn3c2)cn1 [Example 245]: 10.7

Now let's try a different one.
-- ask Identify the reported IC50 for the following entry. C#Cc1ccc(OC2CN(c3ccc(-c4cc(-c5c(C)noc5C)cn5ncc(C#N)c45)cn3)C2)cn1 [Example 282]
-- reply 60.8
